target: ERβ (Homo sapiens); test: Phage ELISA / fingerprint on ER immobilized on biotinylated ERE (Examples 2.3-2.5); type: binding; set-up: purchased PanVera Corporation, Madison, WI; key: semiquantitative scale of 0 to 7+; 1+: semiquantitative scale of 0 to 7+; 2+: semiquantitative scale of 0 to 7+; 3+: semiquantitative scale of 0 to 7+; 4+: semiquantitative scale of 0 to 7+; 5+: semiquantitative scale of 0 to 7+; 6+: semiquantitative scale of 0 to 7+; semiquantitative scale of 0 to 7+; settings: ERβ and Estradiol (1 µM)
Sequence (Q92731 whole entry): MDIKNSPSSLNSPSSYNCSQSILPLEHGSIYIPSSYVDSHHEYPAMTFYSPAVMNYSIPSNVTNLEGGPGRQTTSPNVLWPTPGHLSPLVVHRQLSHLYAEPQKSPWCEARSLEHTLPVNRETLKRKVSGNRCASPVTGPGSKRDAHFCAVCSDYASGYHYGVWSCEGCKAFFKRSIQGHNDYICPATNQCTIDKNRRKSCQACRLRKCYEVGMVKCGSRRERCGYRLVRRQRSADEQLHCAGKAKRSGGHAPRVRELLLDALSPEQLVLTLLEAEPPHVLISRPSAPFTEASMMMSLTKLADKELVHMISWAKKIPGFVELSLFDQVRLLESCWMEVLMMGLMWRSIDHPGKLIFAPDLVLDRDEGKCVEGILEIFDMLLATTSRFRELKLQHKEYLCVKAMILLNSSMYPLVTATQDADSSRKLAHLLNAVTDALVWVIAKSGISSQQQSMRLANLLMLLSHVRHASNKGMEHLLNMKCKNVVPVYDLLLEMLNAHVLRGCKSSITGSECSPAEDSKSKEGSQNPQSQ
METRIC NAME: binding activity, ERβ and Estradiol

SSISTYHMGEWFYAMLSSR [Peptide 22t-β]    4+

Field: next sequence
Q: State, in one line, measured binding activity, ERβ and Estradiol of SSTTMFDFFYERLSR [Peptide 6t-β]
A: 4+
